These entries and their values trace back to patent US11925629B2.

tested on: HCT116 (colorectal carcinoma, K Ras G13D) cells; test: Cell proliferation (Alamar Blue) assay, HCT116; assay type: cell-based, human; settings: Homo sapiens, HCT-116, HCT116 cells
pIC50: −log10 of the molar value.
Assay Endpoint: pIC50

Hi! Can you tell me pIC50 for each of these compounds?
1. Cc1cnc(Nc2ccc(F)cc2Cl)nc1-n1cnc(C(=O)NC(CO)c2cccc(Cl)c2)c1 (stereo not shown) [Example 166]
2. Cc1cnc(Nc2ccc(F)cc2)nc1-n1cnc(C(=O)NC(CO)c2cccc(Cl)c2)c1 (stereo not shown) [Example 155]
3. Cc1cnc(NC2CC=CCC2)nc1-n1cnc(C(=O)N[C@H](CN)c2cccc(Cl)c2)c1 (stereo partly shown) [Example 292]
4. O=C(NC(CO)c1ccccc1)c1ccn(-c2nc(Nc3ccccc3Cl)ncc2F)c1 (stereo not shown) [Example 67]

["< 5.60", "5.60 to 6.30", "≥ 7.00", "< 5.60"]

* * *

test system: HCT116 (colorectal carcinoma, K Ras G13D) cells; assay: Cell proliferation (Alamar Blue) assay, HCT116; format: cell-based, human; details: Homo sapiens, HCT-116, HCT116 cells
pIC50: −log10 of the molar value.
Assay Endpoint: pIC50

# Molecule, Measured
measured = [
    ("Cc1cn(-c2nc(Nc3ccc(F)cc3)ncc2C)cc1C(=O)NC(CO)c1ccccc1 (stereo not shown) [Example 108]", "< 5.60"),
    ("Cc1cnc(Nc2ccc3[nH]ncc3c2)nc1-n1ccc(C(=O)NC(CO)c2ccccc2)c1 (stereo not shown) [Example 140]", "5.60 to 6.30"),
    ("Cc1cnc(Nc2cc3c(cc2Cl)OCO3)nc1-n1ccc(C(=O)NC(CO)c2cccc(Cl)c2)c1 (stereo not shown) [Example 101]", "< 5.60"),
    ("O=C(NC(CO)c1ccccc1)c1ccn(-c2ccnc(Nc3ccc4c(c3)OCO4)c2)c1 (stereo not shown) [Example 76]", "< 5.60"),
    ("Cc1cnc(Nc2ccc3c(c2)OCCC3)nc1-n1ccc(C(=O)NC(CO)c2ccccc2)c1 (stereo not shown) [Example 186]", "6.30 to 6.60"),
    ("Cc1cnc(NC2CCOCC2)nc1-n1cnc(C(=O)N[C@H](CO)c2cccc(Cl)c2)c1 [Compound 211]", "6.60 to 7.00"),
    ("O=C(Nc1cnn(-c2ccnc(Nc3ccc(F)cc3Cl)n2)c1)N[C@H](CO)c1cccc(Cl)c1 [Cmpd 20]", "< 5.60"),
    ("Cc1cnc(Nc2ccc(F)cc2)cc1-n1ccc(C(=O)NC(CN)c2cccc(Cl)c2)c1 (stereo not shown) [Cmpd 159]", "5.60 to 6.30"),
    ("Cc1cnc(Nc2ccc3c(c2)OC(F)(F)O3)nc1-n1cnc(C(=O)NCc2cccc(Cl)c2CO)c1 [Example 332]", "6.30 to 6.60"),
    ("C#Cc1cccc(Nc2nccc(-n3cc(NC(=O)N[C@H](CO)c4cccc(Cl)c4)cn3)n2)c1 [Example 38]", "< 5.60"),
]

Kindly give each listed record's pIC50.
1. Cc1cnc(Nc2ccc3c(c2)OCO3)nc1-n1cc(C(=O)NC(CO)c2cccc(Cl)c2)cn1 (stereo not shown) [Example 41]
2. Cc1cnc(Nc2ccc3c(c2)OCO3)nc1-n1ccc(C(=O)NC(CO)c2cccc(Cl)c2F)c1 (stereo not shown) [Example 70]
3. Cc1cnc(Nc2ccc(F)c(N3CCNCC3)c2)nc1-n1ccc(C(=O)NC(CO)c2cccc(Cl)c2)c1 (stereo not shown) [Example 213]
4. CN1CCN(c2ccc(Nc3nccc(-n4cc(NC(=O)N[C@H](CO)c5cccc(Cl)c5)cn4)n3)cc2)CC1 [Example 22]
5. Cc1cnc(Nc2ccc(F)cc2)nc1-n1cnc(C(=O)N[C@@H](CN)c2cccc(Cl)c2)c1 [Example 249]

1. < 5.60
2. 5.60 to 6.30
3. 6.30 to 6.60
4. < 5.60
5. 5.60 to 6.30

# batch: return pIC50 for each of the 6 molecules below
1. Cc1cnc(N[C@H]2CCOC2)nc1-n1cnc(C(=O)NCc2cccc(Cl)c2CO)c1 [Example 270]
2. COc1ccc(Nc2ncc(C)c(-n3ccc(C(=O)NC(CO)c4ccccc4)c3)n2)cc1OCCN1CCN(C)CC1 (stereo not shown) [Example 148]
3. Cc1cnc(Nc2cccnc2)nc1-n1cc(NC(=O)N[C@H](CO)c2cccc(Cl)c2)cn1 [Example 23]
4. Cc1cnc(NC2CC(F)(F)C2)nc1-n1cnc(C(=O)NC(CN)c2cc(F)cc(Cl)c2)c1 (stereo not shown) [Example 278]
5. Cc1cnc(NC2CCOCC2)nc1-n1cnc(C(=O)NCc2cc(F)cc(Cl)c2CO)c1 [Compound #297]
6. Cc1cnc(NC2CC2)nc1-n1cc(NC(=O)N[C@H](CO)c2cccc(Cl)c2)cn1 [Example 3]

1. ≥ 7.00
2. 5.60 to 6.30
3. < 5.60
4. ≥ 7.00
5. 6.60 to 7.00
6. < 5.60

Provide pIC50 values for the following items, in order.
1. Cc1cnc(NC2CCOCC2)nc1-n1cnc(C(=O)N[C@H](CNCCO)c2cccc(Cl)c2)c1 [Example 333]
2. Cc1cnc(NC2CCOCC2)nc1-n1cnc(C(=O)NCc2ccccc2CN)c1 [Example 283]
3. O=C(N[C@H](CO)c1cccc(Cl)c1)c1ccn(-c2ccnc(NC3CCOC3)c2)c1 (stereo partly shown) [Example 188]
4. Cc1cnc(NC2CCC(F)(F)CC2)nc1-n1cnc(C(=O)N[C@H](CN)c2cccc(Cl)c2)c1 [Example 286]
5. Cc1cnc(NC2CCOCC2)nc1-n1cnc(C(=O)N[C@@H](CO)c2cccc(Cl)c2)c1 [Example 217]

1: ≥ 7.00; 2: < 5.60; 3: < 5.60; 4: ≥ 7.00; 5: < 5.60

* * *

target: ERK1 (Homo sapiens); construct: purchased Jubilant Biosys; assay: ERK1 HTRF (biochemical) assay; settings: HTRF biochemical assay
Sequence (P27361 whole entry): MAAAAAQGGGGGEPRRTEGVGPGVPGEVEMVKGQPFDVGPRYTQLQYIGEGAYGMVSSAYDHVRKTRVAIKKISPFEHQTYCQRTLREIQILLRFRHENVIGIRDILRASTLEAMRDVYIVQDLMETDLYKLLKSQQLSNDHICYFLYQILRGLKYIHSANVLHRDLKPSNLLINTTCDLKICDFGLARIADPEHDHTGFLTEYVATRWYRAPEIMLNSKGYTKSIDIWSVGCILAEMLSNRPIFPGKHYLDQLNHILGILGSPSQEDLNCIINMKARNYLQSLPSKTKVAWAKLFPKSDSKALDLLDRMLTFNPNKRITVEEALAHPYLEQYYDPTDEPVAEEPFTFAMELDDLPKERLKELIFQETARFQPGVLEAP
Structures can show the parent of a compound that is named as a salt.
Kindly supply the reported IC50 values for the records listed here.

# Compound, Target System, IC50
data = [
    ("Cc1cnc(Nc2ccc3c(c2)OC(F)(F)O3)cc1-n1cnc(C(=O)NC(CO)c2ccccc2)c1 (stereo not shown)", "ERK1 (Homo sapiens)", "0.05 to 0.1 µM"),
    ("Cc1cnc(NC2CCOCC2)nc1-n1cnc(C(=O)NCc2cc(F)cc(Cl)c2CO)c1", "ERK1 (Homo sapiens)", "< 0.05 µM"),
    ("Cc1cnc(NC2CCOCC2)nc1-n1cnc(C(=O)N[C@H](CN)c2cccc(Cl)c2)c1 [Compound #298, hydrochloride salt]", "ERK1 (Homo sapiens)", "< 0.05 µM"),
]

Field: next compound
Query: IC50; subject: Cc1cnc(NC2CC(F)(F)C2)nc1-n1cnc(C(=O)N[C@H](CN)c2cccc(Cl)c2)c1
< 0.05 µM

* * *

test system: HCT116 (colorectal carcinoma, K Ras G13D) cells; experiment: Cell proliferation (Alamar Blue) assay, HCT116; assay type: cell-based, human; conditions: Homo sapiens, HCT-116, HCT116 cells
For each entry below, report its IC50 value.

Count: 4. Required value per item: IC50.
1. Cc1cn(-c2ccnc(Nc3ccccc3)c2)cc1C(=O)N[C@H](CO)c1cccc(Cl)c1 [Example 183]
2. CNC(=O)c1ccc(Nc2ncc(C)c(-n3ccc(C(=O)NC(CO)c4cccc(Cl)c4)c3)n2)cc1 (centres unmarked) [Example 196]
3. CC(=O)NCC(NC(=O)c1ccn(-c2nc(Nc3ccc4c(c3)OC(F)(F)O4)ncc2C)c1)c1cccc(Cl)c1 (centres unmarked) [Example 158]
4. Cc1cnc(NC2CCOCC2)nc1-n1cnc(C(=O)N[C@@H](CN)c2cc(F)cc(Cl)c2)c1 [Example 276]

["> 2.5 µM", "0.5 to 2.5 µM", "0.5 to 2.5 µM", "0.5 to 2.5 µM"]

* * *

tested on: HCT116 (colorectal carcinoma, K Ras G13D) cells; test: Cell proliferation (Alamar Blue) assay, HCT116; assay type: cell-based, human; conditions: Homo sapiens, HCT-116, HCT116 cells
pIC50: −log10 of the molar value.
Provide the reported pIC50 of each item.

Some compounds with known pIC50 results, for comparison:
# Compound, Assay Endpoint, Measured
data = [
    ("Cc1cccc(CNC(=O)c2cn(-c3nc(NC4CCOCC4)ncc3C)cn2)n1 [Example 279]", "pIC50", "5.60 to 6.30"),
    ("Cc1cnc(Nc2ccnn2C)nc1-n1cnc(C(=O)N[C@H](CN)c2cccc(Cl)c2)c1 [Example 280]", "pIC50", "≥ 7.00"),
    ("Cc1cnc(NC2CCOCC2)nc1-n1cnc(C(=O)NC(C)(C)c2cccc(Cl)c2CO)c1 [Example 341]", "pIC50", "5.60 to 6.30"),
    ("Cc1cnc(NC2CCCCC2)nc1-n1cnc(C(=O)NC(CO)c2cccc(Cl)c2)c1 (stereo not shown) [Example 226]", "pIC50", "< 5.60"),
    ("O=C(N[C@H](CO)c1cccc(Cl)c1)c1ccn(-c2ccnc(Nc3ccc(F)cc3Cl)n2)c1 [Example 112]", "pIC50", "< 5.60"),
]

Give pIC50 for each listed item.
1. Cc1cnc(NC2CCC(F)(F)CC2)nc1-n1cnc(C(=O)N[C@H](CO)c2cccc(Cl)c2)c1 [Example 240]
2. Cc1cnc(Nc2ccc3c(c2)OC(F)(F)O3)cc1-n1cnc(C(=O)NC(CN)Cc2ccccc2)c1 (stereo not shown) [Example 99]
3. Cc1cnc(Nc2ccnn2C)nc1-n1cnc(C(=O)N[C@H](CO)c2cccc(Cl)c2)c1 [Example 277]
4. Cc1cnc(Nc2ccc3c(c2)OC(F)(F)O3)cc1-n1cnc(C(=O)NC(CO)c2ccccc2)c1 (stereo not shown) [Example 86]

1. 6.30 to 6.60
2. < 5.60
3. 6.30 to 6.60
4. < 5.60
